Reference source: ChEMBL document CHEMBL1153202

protocol.description: Plasma concentration in Sprague-Dawley rat at 5 mg/kg, po after 6 hrs by LC-MS/MS analysis
Type: ADME, organism-based
Parameters: dose 5 mg/kg, route oral
metric.name: concentration at 6 h (µM)
Use µM as the unit, but write only the number.

Data request: Given O=C(O)c1ccc(OC2CCN(C(=O)NCc3ccc(Cl)cc3Cl)CC2)cc1 , state its recorded concentration at 6 h.
Data returned: 5.43

* * *

protocol.description: Plasma concentration in Sprague-Dawley rat at 5 mg/kg, po after 4 hrs by LC-MS/MS analysis
Format: ADME, organism-based
Set-up: dose 5 mg/kg, route oral
metric.name: concentration at 4 h (nM)
// return numeric value only (unit: nM, not printed)

structure.notation | value.reported
O=C(NCc1ccc(Cl)cc1Cl)N1CCC(Oc2ccccc2)CC1 | 100
O=C(NCc1ccc(Cl)cc1Cl)N1CCC(Oc2ncccn2)CC1 | 1300

Data request: Can you look up the measured concentration at 4 h of O=C(O)c1ccc(OC2CCN(C(=O)NCc3ccc(Cl)cc3Cl)CC2)cc1 for me?
Data returned: 3800
